Measured viscosity accompanies every entry in the list below.
assay: xn = mol fraction of the nth substance listed; conditions: 323.15 K; 100 kPa; Liquid; Concentric cylinders viscometry; x1 = 0.9
Please give a number only; it is taken to be in mPa·s.

// worked examples, viscosity included
compound	viscosity / mPa·s
CN1CCC[C@H]1c1cccnc1 [(-)-3-(N-methylpyrrolidino)pyridine] + CC(O)CO	2.765
CN1CCC[C@H]1c1cccnc1 [(-)-3-(N-methylpyrrolidino)pyridine] + CCCCO	2.143
CN1CCC[C@H]1c1cccnc1 [(-)-3-(N-methylpyrrolidino)pyridine] + OCCCO	2.837

# evaluate next
Incoming: Hello, please tell me recorded viscosity for this one: CN1CCC[C@H]1c1cccnc1 [(-)-3-(N-methylpyrrolidino)pyridine] + CCC(C)O
Outgoing: 2.183

###

Measured mass density accompanies every entry in the list below.
experiment: xn = mol fraction of the nth substance listed; settings: 303.15 K; 100 kPa; Liquid; Vibrating tube method; x1 = 0.5
Please give a number only; it is taken to be in kg/m3.

// worked examples, mass density included
compound	numeric-readout
CN1CCC[C@H]1c1cccnc1 [(-)-3-(N-methylpyrrolidino)pyridine] + CCCCO	935.124
CN1CCC[C@H]1c1cccnc1 [(-)-3-(N-methylpyrrolidino)pyridine] + CCC(C)O	933.194
CN1CCC[C@H]1c1cccnc1 [(-)-3-(N-methylpyrrolidino)pyridine] + CC(O)CO	1016.35

# evaluate next
Incoming: Hello, please tell me recorded mass density for this one: CN1CCC[C@H]1c1cccnc1 [(-)-3-(N-methylpyrrolidino)pyridine] + OCCCO
Outgoing: 1024.77

###

conditions: 308.15 K; 100 kPa; Liquid; Concentric cylinders viscometry
Measured viscosity accompanies every entry in the list below.
Please give a number only; it is taken to be in mPa·s.

molecule	attribute-measured	numeric-readout
CN1CCC[C@H]1c1cccnc1 [(-)-3-(N-methylpyrrolidino)pyridine]	viscosity	3.088
CC(O)CO (stereo not given)	viscosity	25.5
CCCCO	viscosity	1.994
CCC(C)O (stereo not given)	viscosity	2.149

# evaluate next
Incoming: Hello, please tell me recorded viscosity for this one: OCCCO
Outgoing: 26.87

###

assay: xn = mol fraction of the nth substance listed; conditions: 308.15 K; 100 kPa; Liquid; Vibrating tube method; x1 = 0.5
Measured mass density accompanies every entry in the list below.
Please give a number only; it is taken to be in kg/m3.

// worked examples, mass density included
molecule	mass density [kg/m3]
CN1CCC[C@H]1c1cccnc1 [(-)-3-(N-methylpyrrolidino)pyridine] + CCC(C)O	929.021
CN1CCC[C@H]1c1cccnc1 [(-)-3-(N-methylpyrrolidino)pyridine] + CCCCO	931.041

Incoming: Hello, please tell me recorded mass density for this one: CN1CCC[C@H]1c1cccnc1 [(-)-3-(N-methylpyrrolidino)pyridine] + CC(O)CO
Outgoing: 1012.14

Incoming: Hello, please tell me recorded mass density for this one: CN1CCC[C@H]1c1cccnc1 [(-)-3-(N-methylpyrrolidino)pyridine] + OCCCO
Outgoing: 1020.81

###

experiment: refractive index (Na D-line) (dimensionless); xn = mol fraction of the nth substance listed; settings: 298.15 K; 100 kPa; Liquid; Standard Abbe refractometry; x1 = 0.5
Numbers after ± are expanded uncertainties.
Measured refractive index accompanies every entry in the list below.

// worked examples, refractive index included
compound	refractive index
CN1CCC[C@H]1c1cccnc1 [(-)-3-(N-methylpyrrolidino)pyridine] + CC(O)CO	1.49711 ± 0.00038
CN1CCC[C@H]1c1cccnc1 [(-)-3-(N-methylpyrrolidino)pyridine] + CCCCO	1.48076 ± 0.00038
CN1CCC[C@H]1c1cccnc1 [(-)-3-(N-methylpyrrolidino)pyridine] + OCCCO	1.50131 ± 0.00046

# evaluate next
Incoming: Hello, please tell me recorded refractive index for this one: CN1CCC[C@H]1c1cccnc1 [(-)-3-(N-methylpyrrolidino)pyridine] + CCC(C)O
Outgoing: 1.47864 ± 0.00038

###

assay: xn = mol fraction of the nth substance listed; settings: 318.15 K; 100 kPa; Liquid; Vibrating tube method; x1 = 0.9
attribute-measured: mass density (kg/m3)
Please give a number only; it is taken to be in kg/m3.

// worked examples, mass density included
compound	measurement-units	numeric-readout
CN1CCC[C@H]1c1cccnc1 [(-)-3-(N-methylpyrrolidino)pyridine] + CCC(C)O	kg/m3	979.601
CN1CCC[C@H]1c1cccnc1 [(-)-3-(N-methylpyrrolidino)pyridine] + OCCCO	kg/m3	994.453
CN1CCC[C@H]1c1cccnc1 [(-)-3-(N-methylpyrrolidino)pyridine] + CC(O)CO	kg/m3	992.46

# evaluate next
Incoming: Hello, please tell me recorded mass density for this one: CN1CCC[C@H]1c1cccnc1 [(-)-3-(N-methylpyrrolidino)pyridine] + CCCCO
Outgoing: 979.704

###

experiment: xn = mol fraction of the nth substance listed; settings: 293.15 K; 100 kPa; Liquid; Vibrating tube method; x1 = 0.3
attribute-measured: mass density (kg/m3)
Please give a number only; it is taken to be in kg/m3.

compound	mass density [kg/m3]
CN1CCC[C@H]1c1cccnc1 [(-)-3-(N-methylpyrrolidino)pyridine] + CC(O)CO	1030.49
CN1CCC[C@H]1c1cccnc1 [(-)-3-(N-methylpyrrolidino)pyridine] + CCC(C)O	898.284
CN1CCC[C@H]1c1cccnc1 [(-)-3-(N-methylpyrrolidino)pyridine] + CCCCO	901.216

# evaluate next
Incoming: Hello, please tell me recorded mass density for this one: CN1CCC[C@H]1c1cccnc1 [(-)-3-(N-methylpyrrolidino)pyridine] + OCCCO
Outgoing: 1041.3

###

assay: refractive index (Na D-line) (dimensionless); xn = mol fraction of the nth substance listed; settings: 318.15 K; 100 kPa; Liquid; Standard Abbe refractometry; x1 = 0.9
attribute-measured: refractive index
Respond numerically, and do not add a unit to the figure.

// worked examples, refractive index included
compound	numeric-readout
CN1CCC[C@H]1c1cccnc1 [(-)-3-(N-methylpyrrolidino)pyridine] + CCC(C)O	1.50772
CN1CCC[C@H]1c1cccnc1 [(-)-3-(N-methylpyrrolidino)pyridine] + CCCCO	1.50823
CN1CCC[C@H]1c1cccnc1 [(-)-3-(N-methylpyrrolidino)pyridine] + CC(O)CO	1.511

Incoming: Hello, please tell me recorded refractive index for this one: CN1CCC[C@H]1c1cccnc1 [(-)-3-(N-methylpyrrolidino)pyridine] + OCCCO
Outgoing: 1.51216

###

assay: refractive index (Na D-line) (dimensionless); xn = mol fraction of the nth substance listed; settings: 323.15 K; 100 kPa; Liquid; Standard Abbe refractometry; x1 = 0.9
attribute-measured: refractive index
Respond numerically, and do not add a unit to the figure.

// worked examples, refractive index included
compound	attribute-measured	numeric-readout
CN1CCC[C@H]1c1cccnc1 [(-)-3-(N-methylpyrrolidino)pyridine] + CC(O)CO	refractive index	1.50881
CN1CCC[C@H]1c1cccnc1 [(-)-3-(N-methylpyrrolidino)pyridine] + CCC(C)O	refractive index	1.5055
CN1CCC[C@H]1c1cccnc1 [(-)-3-(N-methylpyrrolidino)pyridine] + CCCCO	refractive index	1.50604

Incoming: Hello, please tell me recorded refractive index for this one: CN1CCC[C@H]1c1cccnc1 [(-)-3-(N-methylpyrrolidino)pyridine] + OCCCO
Outgoing: 1.50996

###

Measured refractive index accompanies every entry in the list below.
experiment: refractive index (Na D-line) (dimensionless); xn = mol fraction of the nth substance listed; conditions: 323.15 K; 100 kPa; Liquid; Standard Abbe refractometry; x1 = 0.1
± gives the expanded uncertainty stated by the source.

molecule	refractive index
CN1CCC[C@H]1c1cccnc1 [(-)-3-(N-methylpyrrolidino)pyridine] + OCCCO	1.44849 ± 0.00052
CN1CCC[C@H]1c1cccnc1 [(-)-3-(N-methylpyrrolidino)pyridine] + CCCCO	1.40842 ± 0.00037
CN1CCC[C@H]1c1cccnc1 [(-)-3-(N-methylpyrrolidino)pyridine] + CCC(C)O	1.40509 ± 0.00037

Incoming: Hello, please tell me recorded refractive index for this one: CN1CCC[C@H]1c1cccnc1 [(-)-3-(N-methylpyrrolidino)pyridine] + CC(O)CO
Outgoing: 1.44081 ± 0.00037

###

test: xn = mol fraction of the nth substance listed; details: 318.15 K; 100 kPa; Liquid; Concentric cylinders viscometry; x1 = 0.1
attribute-measured: viscosity (mPa·s)
Please give a number only; it is taken to be in mPa·s.

compound	measurement-units	viscosity
CN1CCC[C@H]1c1cccnc1 [(-)-3-(N-methylpyrrolidino)pyridine] + CC(O)CO	mPa·s	14.91
CN1CCC[C@H]1c1cccnc1 [(-)-3-(N-methylpyrrolidino)pyridine] + OCCCO	mPa·s	19.28
CN1CCC[C@H]1c1cccnc1 [(-)-3-(N-methylpyrrolidino)pyridine] + CCCCO	mPa·s	1.683

# evaluate next
Incoming: Hello, please tell me recorded viscosity for this one: CN1CCC[C@H]1c1cccnc1 [(-)-3-(N-methylpyrrolidino)pyridine] + CCC(C)O
Outgoing: 1.627

Cited source: the NIST ThermoML archive (doi:10.1016/j.jct.2016.07.005)
